Assay: chemical genetic growth profiling, strain panel (AID 1159580);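 further: tested at 20 µM; growth read once vehicle control cultures reached saturation at 30 °C; 1 = growth at the plate median or of vehicle wells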
Details: S. cerevisiae deletion strains, growth OD, locus YIL066C, strain RNR3, stronger effect = lower value
Hit rate of the full screen: of about 5,500 compounds, about 2,000 (36%) were called active. Not shown: some 18% with an inconclusive outcome. The list shows a part of the results.
The threshold is 1. Values of normalized growth beneath it are tagged Yes; values meeting or exceeding it are tagged No.

Solved entries:
[
  {
    "compound": "CC(=O)CCCCn1c(=O)c2c(ncn2C)n(C)c1=O",
    "label": "No"
  },
  {
    "compound": "C[C@]12[C@H](O)CC3C(CC[C@@H]4C[C@@H](O)CC[C@]34C)[C@@]1(O)CC[C@@H]2C1=CC(=O)OC1 (stereo not given in full)",
    "label": "No"
  },
  {
    "compound": "CC(C)c1cc2c(c(O)c1O)[C@@]1(C(=O)O)CCCC(C)(C)C1CC2 (stereo not given in full)",
    "label": "Yes"
  }
]

Q: is_below(normalized growth, 1) for COP(=O)(NC(C)=O)SC (stereo not given) ?
A: No

Q: is_below(normalized growth, 1) for C[C@H]1C(=O)CCC2[C@]3(C)CC[C@@]4(C)C5CC(C)(C)CC[C@]5(C)CC[C@]4(C)C3CC[C@@]21C (stereo not given in full) ?
A: Yes

Q: is_below(normalized growth, 1) for `O=C(O)c1cc(O)c2c(c1)C(=O)c1cc(O)cc(O)c1C2=O` ?
A: Yes

Q: is_below(normalized growth, 1) for COC(=O)C[C@H]1C(C)(C)[C@H](O)[C@@H]2CC3=C4CC(O)O[C@@H](c5ccoc5)[C@]4(C)CCC3[C@@]1(C)C2=O (stereo not given in full) ?
A: Yes

Q: is_below(normalized growth, 1) for `O=C(O)CCC(=O)OC[C@@H](NC(=O)C(Cl)Cl)[C@H](O)c1ccc([N+](=O)[O-])cc1` ?
A: Yes

Q: is_below(normalized growth, 1) for `O=c1c(O)cccc2cc(O)c(O)c(O)c12` ?
A: Yes

Q: is_below(normalized growth, 1) for `COc1ccc(/C=C/c2cc(O)cc(O[C@@H]3O[C@H](CO)[C@@H](O)[C@H](O)[C@H]3O)c2)cc1` ?
A: Yes

Q: is_below(normalized growth, 1) for `O=c1c(O)c(-c2ccccc2)oc2cc(O)ccc12` ?
A: Yes

----------
Assay: chemical genetic growth profiling, strain panel (AID 1159580)
Conditions: S. cerevisiae deletion strains, growth OD, locus YNR052C, strain pop2
The whole screen tested about 5,500 compounds, of which about 2,000 (36%) were called active. About 18% were inconclusive and are not listed. Cut-off read from the data, not from the text of the source: active = normalized growth mostly below about 0.91 (no sharp cut-off); inconclusive = no clear call, values can overlap the other calls; inactive = mostly above about 0.92. The list shows a part of the results.
Your reply should match one of these outcome classes. YES for active, NO for inactive

[
  {
    "molecule": "CC1=C(C(=O)O)N2C(=O)[C@@H](NC(=O)[C@@H](N)c3ccc(O)cc3)[C@H]2SC1",
    "label": "NO"
  },
  {
    "molecule": "CC(=O)OC1CCC2(O)CC1(C)CCC1C2CC1(C)C (stereo unspecified)",
    "label": "NO"
  },
  {
    "molecule": "CC(C)N=C(N)N=C(N)Nc1ccc(Cl)cc1",
    "label": "NO"
  },
  {
    "molecule": "CN1CCN(C2=Nc3cc(Cl)ccc3Nc3ccccc32)CC1",
    "label": "NO"
  },
  {
    "molecule": "COc1cc(Cc2cnc(N)nc2N)cc(OC)c1OC",
    "label": "NO"
  }
]

Q: Hello, I am checking results. What call was entered for `O=c1c(O)c(-c2ccccc2)oc2ccc3occc3c12` ?
A: YES

Q: Hello, I am checking results. What call was entered for `O=C(/C=C/c1ccccc1)c1ccc(O[C@@H]2O[C@H](CO)[C@@H](O)[C@H](O)[C@H]2O)cc1O` ?
A: NO

Q: Hello, I am checking results. What call was entered for `O=C(O)CC[N+](=O)[O-]` ?
A: NO

Q: Hello, I am checking results. What call was entered for `COc1ccc(NS(=O)(=O)c2ccc(N)cc2)nn1` ?
A: NO

Q: Hello, I am checking results. What call was entered for `Cc1c(NC(C)C)c(=O)n(-c2ccccc2)n1C` ?
A: NO

Q: Hello, I am checking results. What call was entered for `COc1ccc(/C=C/c2cc(O)cc(O[C@@H]3O[C@H](CO)[C@@H](O)[C@H](O)[C@H]3O)c2)cc1` ?
A: NO

----------
Experiment: chemical genetic growth profiling, strain panel (AID 1159580)
Conditions: S. cerevisiae deletion strains, growth OD, locus YGR252W, strain gcn5, stronger effect = lower value
Screen size: about 5,500 compounds; about 2,000 (36%) were called active. Another 18% or so got no clear call; they are omitted. The list shows a part of the results.
propertyMeasured: normalized growth
Write the number on its own, no unit after it.

[
  {
    "compound": "O=C(N[C@@H](CO)[C@H](O)c1ccc([N+](=O)[O-])cc1)C(Cl)Cl",
    "normalized growth": 0.947
  }
]

Next:
Q: Need normalized growth of `NS(=O)(=O)c1cc2c(cc1Cl)NCNS2(=O)=O` , thanks.
A: 0.969

----------
Experiment: chemical genetic growth profiling, strain panel (AID 1159580);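 further: tested at 20 µM; growth read once vehicle control cultures reached saturation at 30 °C; 1 = growth at the plate median or of vehicle wells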
Settings: S. cerevisiae deletion strains, growth OD, locus YDR392W, strain spt3
The campaign covered roughly 5,500 compounds. About 2,000 (36%) were called active. Another 18% or so got no clear call; they are omitted. No stated cut-off is given here; in the data, active means normalized growth mostly below about 0.91 (no sharp cut-off); inconclusive means no clear call, values can overlap the other calls; inactive means mostly above about 0.92. Some of the results follow.
Your reply should match one of these outcome classes. active, inactive

Solved entries:
[
  {
    "compound": "CNC(=O)N(C)c1nnc(C(C)(C)C)s1",
    "label": "inactive"
  },
  {
    "compound": "NC(=NCCCCCCN=C(N)N=C(N)Nc1ccc(Cl)cc1)N=C(N)Nc1ccc(Cl)cc1",
    "label": "active"
  },
  {
    "compound": "O=C(O)[C@H]1/C(=C/CO)O[C@@H]2CC(=O)N21",
    "label": "inactive"
  },
  {
    "compound": "OC[C@H]1O[C@@H](Oc2ccc(O)cc2)[C@H](O)[C@@H](O)[C@@H]1O",
    "label": "inactive"
  },
  {
    "compound": "CCCCN(CC)c1c([N+](=O)[O-])cc(C(F)(F)F)cc1[N+](=O)[O-]",
    "label": "inactive"
  },
  {
    "compound": "CC(=O)Oc1c(C)c(C)c2c(c1C)CCC(C)(CCCC(C)CCCC(C)CCCC(C)C)O2 (stereo not given)",
    "label": "inactive"
  }
]

Q: Hello, I am checking results. What call was entered for NC(Cc1ccc(Cl)cc1)C(=O)O (stereo not given) ?
A: inactive

Q: Hello, I am checking results. What call was entered for `O=C(/C=C/c1ccccc1)c1ccc(O[C@@H]2O[C@H](CO)[C@@H](O)[C@H](O)[C@H]2O)cc1O` ?
A: inactive

Q: Hello, I am checking results. What call was entered for O=C(c1ccccc1)c1ccc2n1CCC2C(=O)O (stereo not given) ?
A: inactive

Q: Hello, I am checking results. What call was entered for `CCCN(CCC)c1c([N+](=O)[O-])cc(C(F)(F)F)cc1[N+](=O)[O-]` ?
A: inactive

----------
Test: chemical genetic growth profiling, strain panel (AID 1159580);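 further: tested at 20 µM; growth read once vehicle control cultures reached saturation at 30 °C; 1 = growth at the plate median or of vehicle wells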
Settings: S. cerevisiae deletion strains, growth OD, locus YDL101C, strain DUN1
The campaign covered roughly 5,500 compounds. About 2,000 (36%) were called active. Inconclusive results (about 18%) are left out. Rule as the data show it: active = normalized growth mostly below about 0.91 (no sharp cut-off); inconclusive = no clear call, values can overlap the other calls; inactive = mostly above about 0.92. The list shows a part of the results.
Your reply should match one of these outcome classes. 1 (yes) = active, 0 (no) = inactive

[
  {
    "molecule": "Cn1c(=O)c2c(ncn2C)n(C)c1=O",
    "label": "0 (no)"
  },
  {
    "molecule": "CCOC(=O)c1ccc(N=Cc2cc(Cl)cc(Cl)c2O)cc1",
    "label": "0 (no)"
  },
  {
    "molecule": "Cc1csc2ncnc(N3CCN(C(=O)Nc4ccc(SC(F)(F)F)cc4)CC3)c12",
    "label": "0 (no)"
  },
  {
    "molecule": "O=C1C(=O)c2ccccc2C(O)=C1C1CCC(c2ccc(Cl)cc2)CC1 (configuration not stated)",
    "label": "0 (no)"
  },
  {
    "molecule": "S=C(NCCc1csc2ccccc12)Nc1ccc(Cl)cc1",
    "label": "0 (no)"
  }
]

Consider the additional molecule presented here.
Q: Hello, I am checking results. What call was entered for `CCOC(=O)c1ccc(NC(=S)N2CCOCC2)cc1` ?
A: 0 (no)

----------
Experiment: chemical genetic growth profiling, strain panel (AID 1159580);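 further: tested at 20 µM; growth read once vehicle control cultures reached saturation at 30 °C; 1 = growth at the plate median or of vehicle wells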
Conditions: S. cerevisiae deletion strains, growth OD, locus YNL197C, strain WHI3, stronger effect = lower value
Screen size: about 5,500 compounds; about 2,000 (36%) were called active. Inconclusive results (about 18%) are left out. Some of the results follow.
The threshold is 1. Values of normalized growth beneath it are tagged true (1); values meeting or exceeding it are tagged false (0).

Solved entries:
[
  {
    "compound": "COC[C@H]1OC(=O)c2coc3c2[C@@]1(C)C1=C(C3=O)C2CCC(=O)[C@@]2(C)C[C@H]1OC(C)=O (stereo partly drawn)",
    "label": "true (1)"
  },
  {
    "compound": "Cn1c(=O)c2c(nc(/C=C/c3cccc(Cl)c3)n2C)n(C)c1=O",
    "label": "true (1)"
  }
]

Consider the additional compound presented here.
Q: is_below(normalized growth, 1) for O=C(Cc1ccc(Cl)c(Cl)c1)N1CCCCC1CN1CCCC1 (stereo not drawn) ?
A: false (0)
